Ref: PubChem BioAssay (NCATS)

Test system: CAOV3
Assay: Primary qHTS to identify gynecologic anti-cancer compounds using libraries of approved drugs and bioactive compounds (AID 1345084); further: nearly all actives have a fitted effect of over 55% in size
Conditions: Gynecologic cancer cell panel viability, ATPlite luminescence, 48 h; series mostly up to 57.5 µM
Inconclusive results are not listed. The source made the active and inactive calls. The call rests on the fitted dose curve; in most records, active means well fitted cell-killing curve with a large enough effect; inconclusive means small, poorly fitted or top-dose-only effect, or effect the other way; inactive means flat fitted curve, though single readings scatter.
Possible outcomes: 1 (active), 0 (inactive)

1) COc1cc(C(=O)O)ccc1NC(=O)C1NC(CC(C)(C)C)C(C#N)(c2ccc(Cl)cc2F)C1c1cccc(Cl)c1F (centres undefined)    0
2) N#Cc1ccc2ncnc(NCCc3ccccc3)c2c1    0
3) CC(C)c1ccccc1OC(=O)NCCc1ccc2ccccc2c1    0
4) CC(=O)OC[C@]12[C@H](OC(C)=O)C(=O)[C@@H]3[C@@H](O)[C@@]14O[C@@]3(C)COC(=O)c1cccnc1[C@@H](C)[C@H](C)C(=O)O[C@@H]([C@H](O)[C@@H]2OC(C)=O)[C@]4(C)O    0
5) O=S(=O)(c1ccc(Cl)cc1)N1CCN(c2ccnc3cc(Cl)ccc23)CC1    0
6) C=CC1(C)CC(O)C(C(=C)C(=O)OC)C(O)C1C(=C)CO (centres undefined)    0
7) CNCc1cc(-c2ccccc2F)n(S(=O)(=O)c2cccnc2)c1    0
8) COc1cccc(NCCC2(c3ccccc3)CC(C)(C)OC(C)(C)C2)c1    0
9) C#CCCCn1cc(-c2cccc3c2N[C@H](C)CC(=O)N3)cn1    0
10) C=C1C(=O)O[C@@H]2C3C(=C(C)[C@@H](O)[C@@H](OC(=O)/C(=C/C)COC(C)=O)[C@@H]12)C(=O)[C@H]1O[C@@]31C (some centres undefined)    1
11) O=C(NCCN1CCC(n2c(=O)[nH]c3ccccc32)CC1)c1cc2cc(F)ccc2[nH]1    0
12) CN(C)C(CCOc1cccc2ccccc12)c1ccccc1 (centres undefined)    0
13) CC1=C(C(=O)OC2CCCCC2)C(c2ccc([N+](=O)[O-])cc2)C2=C(CC(C)(C)CC2=O)N1 (centres undefined)    0
14) C=C1CCC2C(C)(C(=O)O)CCCC2(C)C1CCC1=CCOC1=O (centres undefined)    0

====

Biological target: Cytochrome P450 2C9 (Homo sapiens) (UniProt P11712)
Sequence (P11712 whole entry, looked up): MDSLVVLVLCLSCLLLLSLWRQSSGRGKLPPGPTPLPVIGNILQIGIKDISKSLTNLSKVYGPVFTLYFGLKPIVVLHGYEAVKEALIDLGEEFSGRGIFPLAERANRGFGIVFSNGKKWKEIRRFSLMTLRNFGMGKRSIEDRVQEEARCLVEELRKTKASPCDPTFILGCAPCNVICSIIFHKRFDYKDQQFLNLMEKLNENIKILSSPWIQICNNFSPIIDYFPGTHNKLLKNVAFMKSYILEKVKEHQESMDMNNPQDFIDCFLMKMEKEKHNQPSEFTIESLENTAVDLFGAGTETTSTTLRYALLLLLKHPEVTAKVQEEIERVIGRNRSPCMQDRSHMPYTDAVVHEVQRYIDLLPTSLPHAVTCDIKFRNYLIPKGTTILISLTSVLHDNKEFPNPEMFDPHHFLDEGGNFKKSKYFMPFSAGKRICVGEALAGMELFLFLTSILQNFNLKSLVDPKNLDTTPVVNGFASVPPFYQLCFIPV
Assay: Cytochrome P450 family 2 subfamily C member 9 (CYP2C9) small molecule antagonists: luciferase biochemical (cell-free) qHTS assay (AID 1645842); further: nearly all actives have a fitted effect of over 55% in size
Details: P450-Glo CYP2C9 enzyme assay, luciferin luminescence; series mostly up to 57.4 µM
Description: National Center for Advancing Translational Sciences [NCATS] Assay Overview: Cytochrome P450 (CYP) enzymes are membrane-bound hemeproteins that play a key role in metabolism of drugs and xenobiotics. Assaying the effect of chemicals on CYP isozymes is useful to minimize the adverse drug reactions and toxicities in drug development process. […] The luciferin products formed are detected with a luciferin detection reagent, and the amount of light produced is proportional to CYP activity. […]
Results filed as inconclusive are left out. Activity calls are given as the source filed them. Calls come from the whole dose curve; as a rule, active = well fitted inhibition curve with a large enough effect in the repeat runs; inconclusive = weak or mixed curves; inactive = no such curve, though single readings can be large or run the other way.
Possible outcomes: Y for active, N for inactive

1) CCn1c(-c2nonc2N)nc2c(C#CCO)ncc(OCCCN)c21    N
2) CCc1cnc(N2CCC(c3nc(COc4ccc(-n5cnnn5)cc4)cs3)CC2)nc1    N
3) Clc1cccc(COc2cncc(N3CCNCC3)n2)c1    N
4) Cc1onc(-c2ccccc2)c1C(=O)N1CCN(c2ccc([N+](=O)[O-])cc2Cl)CC1    Y
5) COc1ccc(N(C(=O)Nc2c(C)cccc2C)c2cc(Nc3ccc(N4CCN(C)CC4)cc3)ncn2)c(OC)c1    Y
6) CC(C)NC(=O)COc1cccc(-c2nc(Nc3ccc4[nH]ncc4c3)c3ccccc3n2)c1    Y
7) CCc1ccc(-c2nc(CSCC(=O)NCCc3ccccc3)c(C)o2)cc1    Y
8) Cc1cc(OCCCS(C)(=O)=O)cc(C)c1-c1cccc(COc2ccc3c(c2)OCC3CC(=O)O)c1 (stereo unspecified)    N
9) CC(C)(O)C(=O)N1CCN(c2ccc(C(F)(F)F)c(C3=C(c4c[nH]c5ccccc45)C(=O)NC3=O)c2)CC1    Y
10) CCn1c(=O)n([C@H]2CCCN(c3nccc(-c4cc5ccccc5o4)n3)C2)c2ccccc21    Y
11) CCN(CC)C(=O)c1ccc(Nc2nc(OCC3CCCCC3)c3[nH]cnc3n2)cc1    Y
12) Cc1ccc(F)cc1S(=O)(=O)N[C@@H]1CCN(Cc2ccc(OC(C)C)cc2)C1    Y
13) C=CC(=O)Nc1cccc(Nc2nc(Nc3ccc(NC4CN(CCF)C4)cc3OC)ncc2C(F)(F)F)c1    Y
14) COc1cc(N2CCC(N)CC2)ccc1Nc1ncc(Cl)c(-c2c[nH]c3ccccc23)n1    Y
15) COc1cc(Br)c(S(=O)(=O)Nc2ccc(Cl)c(O[C@@H]3CCN(C)C3)c2)cc1OC    Y
16) C[C@@H](NC(=O)c1ccc(C#Cc2cccc(F)c2)cn1)C(C)(C)O    Y

====

Test: Primary qHTS for inhibitors of nuclear receptor binding SET domain protein 2 (NSD2) in an RCH-ACV wild type WT cells (2C) (AID 1645877); further: nearly all actives have a fitted effect of over 70% in size
Settings: RCH-ACV (leukaemia line) NSD2 WT (2C) viability, CellTiter-Glo, 72 h; series mostly up to 44.9 µM
Excerpt: Assay Provider: Jonathan D. Licht, MD University of Florida College of Medicine, Gainesville, FL Mutations in epigenetic regulators are common in relapsed pediatric acute lymphoblastic leukemia (ALL). Here, we uncovered the mechanism underlying the relapse of ALL driven by an activating mutation of the NSD2 histone methyltransferase (p.E1099K). […] Correction of this mutation restored glucocorticoid sensitivity. […]
Results filed as inconclusive are left out. Active and inactive are the calls of the source. The call rests on the fitted dose curve; in most records, active means well fitted inhibition curve with a large enough effect; inconclusive means small, poorly fitted or top-dose-only effect; inactive means no such curve, though single readings can be large or run the other way.
Possible outcomes: active, inactive

1) CCCN1CCC=C(c2cc(-c3ccc(C)cc3)no2)C1    inactive
2) COc1cc(NC(=O)c2cc(C3CC3)on2)c(OC)cc1Cl    inactive
3) COc1cccc(NCCC2(c3ccccc3)CC(C)(C)OC(C)(C)C2)c1    inactive
4) CC[C@H]1CN(c2nc(N)c(C(N)=O)nc2Cl)CCN1C1CCN(Cc2ccc(Cl)cc2)CC1    inactive
5) CC1(C)CC[C@]2(C(=O)O[C@@H]3O[C@H](CO)[C@@H](O)[C@H](O)[C@H]3O)CC[C@]3(C)C(=CCC4[C@@]5(C)CC[C@H](O[C@@H]6O[C@H](C(=O)O)[C@H](O)[C@H](O)[C@H]6O)C(C)(C)C5CC[C@]43C)[C@@H]2C1 (stereo not given in full)    active
6) Nc1nc2c(c(N3CC[C@@H](N)C3)n1)CCCc1ccccc1-2    active
7) CCOc1ccc(CCNC(=O)c2cc3sc(Cl)cc3n2C)cc1OCC    inactive
8) CC(=O)c1ccc2c(c1)[C@H](NC(=O)c1ccc(F)c(Cl)c1)[C@H](O)C(C)(C)O2    inactive
9) O=C(Nc1cccc(C(F)(F)F)c1)Nc1ccc(Br)cc1-c1nn[nH]n1    inactive
10) Cc1cc(N2CCOCC2)ccc1Nc1nc(NC2CCCCC2)c2[nH]cnc2n1    active

====

Test: P-glycoprotein substrates identified in KB-8-5-11 adenocarcinoma cell line, qHTS therapeutic library screen (AID 1346987); further: nearly all actives have a fitted effect of over 65% in size; further: potency means the concentration at half of the fitted maximal effect
Conditions: KB-8-5-11 (P-gp overexpressing) viability, CellTiter-Glo, 72 h; series mostly up to 44.5 µM
Results filed as inconclusive are left out. Calls of active or inactive are those of the source. Calls follow the shape of the dose curve; as a rule, active = well fitted inhibition curve with a large enough effect; inconclusive = small, poorly fitted or top-dose-only effect; inactive = flat fitted curve, though single readings scatter.
Readout Kind: Potency

1) O=C(O)C1=CO[C@@H](O[C@@H]2O[C@H](CO)[C@@H](O)[C@H](O)[C@H]2O)[C@@H]2C(CO)=CC[C@H]12    inactive
2) CCOC(=O)c1cnc2ccc(-c3cncc(NS(=O)(=O)c4ccccc4)c3)cn12    4.11 µM (active)
3) CCC(=O)N1CCOc2c(cc(-c3ccc(OC)c(OC)c3)cc2OC[C@H]2CCCN(C)C2)C1    inactive
4) COC(=O)C(Cc1ccc(OCCn2c(=O)sc3cc(C(=O)c4ccccc4)ccc32)cc1)C(=O)OC    inactive

====

Tested on: HeLa
Experiment: Primary qHTS to identify gynecologic anti-cancer compounds using libraries of approved drugs and bioactive compounds (AID 1345084); further: nearly all actives have a fitted effect of over 55% in size
Details: Gynecologic cancer cell panel viability, ATPlite luminescence, 48 h; series mostly up to 57.5 µM
Inconclusive results are not listed. Active and inactive are the calls of the source. Calls come from the whole dose curve; as a rule, active = well fitted cell-killing curve with a large enough effect; inconclusive = small, poorly fitted or top-dose-only effect, or effect the other way; inactive = flat fitted curve, though single readings scatter.
Possible outcomes: active, inactive

1) CCN1C(C)(C)CC(Oc2ccc(C(=O)Nc3ccc(NC(=O)Nc4cc(C(C)(C)C)on4)cc3)nc2)CC1(C)C    inactive
2) Cc1ccc(S(=O)(=O)NCc2ccc(C(=O)NCCN(Cc3ccccc3)C(C)C)cc2)cc1    inactive
3) CN1CCN(c2ccc(OC(F)(F)F)c(Nc3ncc4c(n3)-c3c(c(C(N)=O)nn3CCO)CC4)c2)CC1    active
4) CC12CCC3C1C(c1c(cc(O)c(C(=O)c4ccccc4)c1O)O2)C3(C)C (configuration not stated)    inactive
5) O=S(=O)(NCc1cccc2ccccc12)c1cc(Cl)c(Oc2cccc(N3CCNCC3)c2)s1    inactive
6) CC(C)c1cc2c(N3CCN(C4=NCC(C)(C)S4)CC3)ncnc2s1    inactive
7) COc1cc(C2OC(c3ccc(OC)c(OC)c3)C(C)C2C)ccc1O (configuration not stated)    inactive
